- assay-target: horse butyrylcholinesterase (Equus caballus, UniProt P81908)
- Sequence (P81908 whole entry): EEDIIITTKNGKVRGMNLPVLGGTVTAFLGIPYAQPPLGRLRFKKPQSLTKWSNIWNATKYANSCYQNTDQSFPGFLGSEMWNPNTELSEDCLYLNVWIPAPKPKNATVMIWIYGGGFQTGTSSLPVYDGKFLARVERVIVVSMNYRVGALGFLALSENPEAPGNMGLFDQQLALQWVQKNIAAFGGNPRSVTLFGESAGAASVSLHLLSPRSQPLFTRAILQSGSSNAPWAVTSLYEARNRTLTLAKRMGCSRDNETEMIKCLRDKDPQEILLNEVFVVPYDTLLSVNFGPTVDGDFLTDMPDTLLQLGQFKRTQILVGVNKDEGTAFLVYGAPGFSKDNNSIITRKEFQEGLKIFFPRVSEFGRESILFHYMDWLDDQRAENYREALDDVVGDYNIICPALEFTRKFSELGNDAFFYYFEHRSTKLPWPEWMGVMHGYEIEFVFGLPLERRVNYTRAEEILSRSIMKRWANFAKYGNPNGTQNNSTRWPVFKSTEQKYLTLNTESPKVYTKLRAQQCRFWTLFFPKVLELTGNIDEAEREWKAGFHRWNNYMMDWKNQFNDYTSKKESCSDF
pIC50: −log10 of the molar value.
assay-endpoint: pIC50

                                   compound  meas_value
0  COc1ccccc1OCCN(Cc1ccccc1)CC(O)CC(O)c1cccc2[nH]c3ccccc3c12 (centres unmarked) [6a]      < 3.30

As a next step, examine the compound that follows.
Summary for this compound, COc1ccccc1OCCN(CC(=O)CC(O)c1cccc(-c2ccccc2)c1)Cc1ccccc1 (centres unmarked) [5c] : pIC50 is < 3.30
